experiment: Stability of cannabinoid compounds and Vitamin E components in Beverage 2 (AB Red) by LCMSMS; type: physicochemical; details: stored at 21-25° C., 180 days
READOUT: Stability of Plant-Derived Cannabinoid Compounds in AB Red
Kindly format the answer as number then unit.

INSERT INTO assay_data (compound, measurement) VALUES
  ('CCCCCc1cc(O)c2c(c1)OC1(C)CCC3C1C2C3(C)C (stereo not drawn)', '0.50 µg/mL');

I need Stability of Plant-Derived Cannabinoid Compounds in AB Red for every entry listed below, if you could help.
1. CCCc1cc(O)c2c(c1)OC(C)(C)[C@@H]1CCC(C)=C[C@@H]21 [THCV, delta-9-tetrahydrocannabivarin]
2. CCCCCc1cc2c(c(O)c1C(=O)O)[C@@H]1C=C(C)CC[C@H]1C(C)(C)O2 [D9 THCA, delta-9-tetrahydrocannabinolic acid]
3. CCCCCc1cc(O)c(C/C=C(\C)CCC=C(C)C)c(O)c1
4. CCCCCc1cc(O)c2c(c1)OC(C)(C)[C@@H]1CCC(C)=C[C@@H]21 [D9 THC, delta-9-tetrahydrocannabinol, reference compound]
5. C=C(C)[C@@H]1CCC(C)=C[C@H]1c1c(O)cc(CCC)cc1O
6. CCCCCc1cc(O)c2c(c1)OC(C)(C)c1ccc(C)cc1-2
7. C=C(C)[C@@H]1CCC(C)=C[C@H]1c1c(O)cc(CCCCC)c(C(=O)O)c1O
8. CCCCCc1cc(O)c2c(c1)OC(C)(CCC=C(C)C)C=C2 (stereo not drawn)

-- reply
3.10 µg/mL
1.30 µg/mL
4.53 µg/mL
12.8 µg/mL
0.20 µg/mL
2.70 µg/mL
1.64 µg/mL
0.28 µg/mL
